test system: CCRF-CEM leukemia; assay: NCI tumour cell line growth inhibition, 48 h
observed-property: TGI

> print(dat)
                                   compound  observed.property  data.value
1  OC1(c2ccc(Cl)cc2)c2ccccc2C2=Nc3ccccc3CN21 (centres undefined)                TGI    > 100 µM
2  CCCCN(CCCC)CC(=O)c1ccc2cc(Cl)c3ccccc3c2c1                TGI    > 100 µM
3  COC(=O)C1Cc2c([nH]c3ccccc23)-c2[nH]c3ccccc3c2CC(NC(C)=O)C(=O)NCC(=O)N1 (centres undefined)                TGI    > 100 µM
4  C(=N\NC1=NCCCN1)/c1ccc(-c2cn3cc(/C=N/NC4=NCCCN4)ccc3n2)cc1                TGI   > 66.2 µM

====

test system: SNB-19 CNS; assay: NCI tumour cell line growth inhibition, 48 h
observed-property: TGI

> print(dat)
                                   molecule  observed.property  data.value
1  CCCCc1cc2c(cc1O)CCC1C2CC[C@@]2(C)C1CC[C@@H]2O (some centres undefined)                TGI    > 100 µM
2  O=C1c2cc3c(cc2-c2c1c1ccc([N+](=O)[O-])cc1c(=O)n2CCCCl)OCO3                TGI    > 100 µM
3        c1ccc(/C(=N/Nc2cnccn2)c2ncccn2)cc1                TGI    > 100 µM
4                            NC(=O)NC(=O)CI                TGI     97.7 µM

====

tested on: NCI/ADR-RES ovarian; experiment: NCI tumour cell line growth inhibition, 48 h
observed-property: TGI

> print(dat)
                           structure.smiles  observed.property  data.value
1  CCOC(=O)/C(O)=C(\C=N\C(=S)Nc1ccc(Cl)c(Cl)c1)C(=O)OCC                TGI    > 100 µM
2  CCN1C(=O)N(c2c(F)c(OC)cc(OC)c2F)Cc2cnc3[nH]c(CN4CCOCC4)cc3c21                TGI    > 100 µM
3  O=C(/C=C1\N=C(c2ccccc2)N(c2ccc3c(c2)Sc2cc(N4C(=O)/C(=C/C(=O)/C=C/c5ccccc5)N=C4c4ccccc4)ccc2N3)C1=O)/C=C/c1ccccc1                TGI    > 100 µM

====

system: TK-10 renal; assay: NCI tumour cell line growth inhibition, 48 h
observed-property: TGI

> print(dat)
                           structure.smiles  data.value
1  C(=N\NC1=NCCCN1)/c1ccc(-c2cn3cc(/C=N/NC4=NCCCN4)ccc3n2)cc1    > 100 µM
2  COc1ccccc1NC(=O)C1=C(C)NC(C)=C(C(=O)Nc2ccccc2OC)C1c1ccc(C(C)C)cc1    > 100 µM
3  O=C1c2cccc3cccc(c23)C(=O)N1CCCCOc1ccc(-c2nc3ccc(N4CCOCC4)cc3[nH]2)cc1     13.4 µM

====

system: ACHN renal; test: NCI tumour cell line growth inhibition, 48 h
observed-property: TGI

> print(dat)
                                    molecule  data.value
 1    CC1(C)COC(c2cccc(C3=NC(C)(C)CO3)c2)=N1    > 100 µM
 2  C[C@H](NC(=O)OC1C2C=CC(O)C1CC2)c1ccccc1 (some centres not stated)    > 100 µM
 3  c1ccc(COc2nc3ccc(C45CC6CC(CC(C6)C4)C5)cc3[nH]2)cc1    > 100 µM
 4  COc1ccc(NS(=O)C2CCCCC2)cc1 (configuration not stated)    > 100 µM
 5  COc1ccc(-n2c(N)c(C(=O)NCCN3CCOCC3)c3nc4ccccc4nc32)cc1OC    > 100 µM
 6         Fc1ccc(C(=NCc2ccccc2)N2CCOCC2)cc1    > 100 µM
 7  CCOC(=O)c1c(NC(=S)NCc2ccccc2)sc2c1CCN(C)C2    > 100 µM
 8  CC(C)C[C@H](NC(=O)[C@@H](Cc1cccc2ccccc12)NC(=O)N1CCOCC1)B(O)O    > 100 µM
 9  C/C=C/C1(NS(=O)(=O)c2ccc(C)cc2)CCC(C(C)(C)C)CC1 (configuration not stated)    > 100 µM
10  CC(O)CN(CCN(CC(C)O)CC(C)O)CC(C)O.O=[N+]([O-])O.[Cu+2] (configuration not stated)    > 100 µM
11  CC1OC(OP(=O)(OCc2ccccc2)OCc2ccccc2)C(OC(=O)c2ccccc2)C(OC(=O)c2ccccc2)C1I (configuration not stated)    > 100 µM
12  CC(=O)OC(C)(C)C1CCC(C)(C(O)COc2ccc(CCNC(=O)c3ccccc3)cc2)O1 (configuration not stated)    > 100 µM
